In this section, each of the molecules is paired with its reported Activity.
# target.or.test.system: Chloride channel isoform 1 (Rattus norvegicus) (UniProt Q7TT78)
# Sequence (Q7TT78 as listed by the source): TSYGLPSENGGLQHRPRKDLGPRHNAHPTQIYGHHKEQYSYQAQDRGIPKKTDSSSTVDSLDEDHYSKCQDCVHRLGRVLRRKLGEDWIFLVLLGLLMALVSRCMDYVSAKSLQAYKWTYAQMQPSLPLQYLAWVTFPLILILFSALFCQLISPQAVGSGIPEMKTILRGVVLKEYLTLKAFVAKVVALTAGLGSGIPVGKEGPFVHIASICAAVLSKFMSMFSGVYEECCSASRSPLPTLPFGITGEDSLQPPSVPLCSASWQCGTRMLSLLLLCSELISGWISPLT
# assay: Inhibition of CIC1 in Wistar rat extensor digitorum longus muscle assessed as decrease in resting chloride channel conductance at 100 uM by electrophysiology method
# Format: tissue-based
# Parameters: scale not given: the % may be the effect or the level left

Worked set:
INSERT INTO results (structure_notation, readout, readout_value) VALUES
  ('CC(C)(Oc1ccc(Cl)cc1)C(=O)O', 'Activity', '28%'),
  ('O=C(O)[C@H](Cc1ccccc1)Oc1ccc(CCc2ccccc2)cc1', 'Activity', '24%'),
  ('CC(C)(Oc1ccc(C(=O)c2ccc(Cl)cc2)cc1)C(=O)O', 'Activity', '11%');

// Activity value for "O=C(O)[C@H](Cc1ccccc1)Oc1ccc(-c2ccccc2)cc1" : 12%

"O=C(O)[C@H](Cc1ccccc1)Oc1ccc(Cc2ccccc2)cc1" has a reported Activity of 9%
